Origin of values: PubChem BioAssay AID1069

Experiment: LNCaP granularity increase inducers, single-point recheck – cell-based, side scatter shift, flow cytometry, confirmation (AID 1069);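 further: LNCaP human prostate cancer cells in low-serum medium with charcoal-stripped FBS; percent of cells with raised granularity gated so DMSO controls show 10%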
Conditions: LNCaP differentiation, 4 d, side scatter shift, at 10 µM, stronger effect = higher value
experimental-endpoint: side scatter shift (%)
Give bare numbers, in %.

molecule	side scatter shift (%)
CCn1c(=O)cc(OCC(=O)N2CCC3(CC2)OCCO3)c2ccccc21	1.7
CCOc1ccc(C2SCC(=O)Nc3c2c(=O)[nH]n3C2CCCCCC2)cc1 (stereo not drawn)	10.5

Okay, now this molecule:
Task: Entry Cc1ccc(Cn2c(C)c3cnn(CC(=O)N4CCC5(CC4)OCCO5)c(=O)c3c2C)cc1 has what side scatter shift?
Output: 3.35
